system: Crude diglycosidase; experiment: Examination of pH in the conversion into isoflavone aglycons by diglycosidase using soybean materials; format: biochemical, Penicillium multicolor IAM7153; details: pH4.8, heat treatment of enzyme no, reaction time 1 h, 55° C.
compounds and their reported Decomposition efficiency of glycitin family in soymilk
Just the number, please, no unit after it.

compound structure string: COc1cc2c(=O)c(-c3ccc(O)cc3)coc2cc1O[C@@H]1O[C@H](COC(=O)CC(=O)O)[C@@H](O)[C@H](O)[C@H]1O
experimental target: Crude diglycosidase
quantitative readout: 37.0

Data point: `COc1cc2c(=O)c(-c3ccc(O)cc3)coc2cc1O` ; Decomposition efficiency of glycitin family in soymilk = 63.0
